Experiment: physchem
Details: pH 7, aqueous buffer, thermodynamic from solid
assay_metric: solubility at 72 h

Summary for this compound, Clc1ccccc1C(c1ccccc1)(c1ccccc1)n1ccnc1 [Clotrimazole] : solubility at 72 h is < 100 µg/mL
